# Test: qHTS assay to identify small molecule agonists of the estrogen related receptor (ERR) signaling pathway (AID 1224820)
# Measurement Setup: ERR reporter cell line, luciferase agonist mode; series mostly up to 46.1 µM
Records with an inconclusive call do not appear. The source made the active and inactive calls. Calls come from the whole dose curve; as a rule, active = well fitted activation curve with a large enough effect in the repeat runs; inconclusive = weak or mixed curves; inactive = no such curve, though single readings can be large or run the other way.
Parameter call: string, one of active, inactive

Solved entries:
>  <Molecule>
Oc1cc2c(c(Cl)c1O)CCNCC2c1ccccc1 (stereo not drawn)

>  <Class>
inactive

$$$$
>  <Molecule>
CCN(CC)CCOC(=O)c1cc(Cl)c(N)cc1OC

>  <Class>
inactive

$$$$

# input Hello, I am checking results. What call was entered for COc1ccc2c(c1)CCC1C2CC[C@@]2(C)C1CC[C@@H]2NCCCCCCN1C(=O)CCC1=O (stereo partly drawn) ?
# output inactive

# input For CN[C@H](CC(=O)O)C(=O)O , which call appears in the assay record?
# output inactive

# input Dear colleague, could you share the recorded outcome for Brc1c(Br)c(Br)c2n[nH]nc2c1Br when you have a moment?
# output inactive

# input Which outcome did this test record for the molecule CN(C)c1cc2c(Nc3ccc4c(cnn4Cc4ccccc4)c3)ncnc2cn1 ?
# output inactive

# input Each molecule tested received a call. Report the one for O=C1NC(=O)c2cc(Nc3ccccc3)c(Nc3ccccc3)cc21 .
# output inactive

# input Any idea what this test logged for CN(C)c1ccc(/C=C2\C(=O)Nc3ccccc32)cc1 ?
# output active

# input Tell me the assay call for Cn1ccnc1 please.
# output inactive

# input Returns: the outcome recorded for NC(CCCP(=O)(O)O)C(=O)O (stereo not drawn) in this assay.
# output inactive

# input In this assay, the call recorded for CC[C@@H](C)[C@H]1O[C@]2(CC[C@@H]1C)C[C@@H]1C[C@@H](C/C=C(\C)[C@@H](O[C@H]3C[C@H](OC)[C@@H](O[C@H]4C[C@H](OC)[C@@H](O)[C@H](C)O4)[C@H](C)O3)[C@@H](C)/C=C/C=C3\CO[C@@H]4[C@H](O)C(C)=C[C@@H](C(=O)O1)[C@]34O)O2 was what?
# output inactive

# input Would you mind telling me which call this test gave O=c1cc(-c2ccccc2)oc2c(O)c(O)ccc12 ?
# output inactive

# input Outcome logged for COc1cccc(-c2cc(=O)c3ccccc3o2)c1N in this assay:
# output active

---

# Test: qHTS assay to identify small molecule agonists of the estrogen related receptor (ERR) signaling pathway (AID 1224820)
# Measurement Setup: ERR reporter cell line, luciferase agonist mode; series mostly up to 46.1 µM
Inconclusive results are not listed. Calls of active or inactive are those of the source. The call rests on the fitted dose curve; in most records, active means well fitted activation curve with a large enough effect in the repeat runs; inconclusive means weak or mixed curves; inactive means no such curve, though single readings can be large or run the other way.
Output constraint: value belongs to Yes (active), No (inactive)

# count of solved cases: 10
>  <Compound>
NC(=O)CNCCC(c1ccccc1)c1ccccc1

>  <Class>
No

$$$$
>  <Compound>
CCCN(CC1CC1)c1nc(C)nc(Nc2c(Cl)cc(Cl)cc2Cl)c1Cl

>  <Class>
No

$$$$
>  <Compound>
O=c1oc(Cl)c(Cl)c2ccccc12

>  <Class>
No

$$$$
>  <Compound>
COc1cccc(C(=O)NCCN2CCN(c3ccc(Cl)cc3)CC2)c1

>  <Class>
No

$$$$
>  <Compound>
NC[C@H]1O[C@@H](n2cnc3c(N)ncnc32)[C@H](O)[C@@H]1O

>  <Class>
No

$$$$
>  <Compound>
COc1cccc(OC)c1OCCNCC1CSc2ccccc2O1 (stereo not given)

>  <Class>
No

$$$$
>  <Compound>
COCCOc1cc2nc[nH]c(=O)c2cc1OCCOC

>  <Class>
No

$$$$
>  <Compound>
COc1ccc(CCn2nnnc2C2(c3ccc(C)cc3)CC2)cc1

>  <Class>
No

$$$$
>  <Compound>
O=C1C(SCCO)=C(SCCO)C(=O)c2ccccc21

>  <Class>
No

$$$$
>  <Compound>
COc1ccc(/C=C/C(=O)Nc2ccccc2C(=O)O)cc1OC

>  <Class>
Yes

$$$$

# input Name the outcome recorded for COC(=O)C1=C(C)NC(C)=C([N+](=O)[O-])C1c1ccccc1C(F)(F)F (stereo not given) in the assay.
# output No

# input For this compound, state the assay outcome: Brc1cc2c(cc1[C@H]1Nc3ccccc3[C@H]3C=CC[C@H]31)OCO2
# output No

# input Check the results log: what was the call for Cc1cccc(/C=C/c2ccccc2)n1 ?
# output Yes

From: PubChem BioAssay (Tox21)
